target: Farnesyl protein transferase (FT) (Bos taurus, UniProt P29702+P49355); construct: Partial purification of FT from bovine brain; assay: Farnesyl protein transferase (FT) inhibition assay; conditions: partially purified FT, Gst-HRas substrate
pIC50: −log10 of the molar value. Square brackets hold non-standard residues; d marks the D form. Peptide text beside a SMILES is read from it. N(3,4-(MeO)2phenethyl)Gly = COc1ccc(CCNCC(=O)O)cc1OC; Gly(N-cHex) = O=C(O)CNC1CCCCC1; N(iPr)Gly = CC(C)NCC(=O)O; Nphe = O=C(O)CNCc1ccccc1
readout-label: pIC50

Worked cases, pIC50 given:
{"compound": "CSCC[C@H](NC(=O)[C@H](Cc1ccccc1)NC(=O)CN(CCN(C)C)C(=O)[C@@H](N)CS)C(=O)O [Semipeptoid 9]", "target": "Farnesyl protein transferase (FT) (Bos taurus, UniProt P29702+P49355)", "recorded-value": 5.40}
{"compound": "CSCC[C@H](NC(=O)CN(Cc1ccccc1)C(=O)[C@@H](NC(=O)[C@@H](N)CS)C(C)C)C(=O)O [Semipeptoid 1] (H-CV[Nphe]M-OH)", "target": "Farnesyl protein transferase (FT) (Bos taurus, UniProt P29702+P49355)", "recorded-value": 7.00}
{"compound": "COc1ccc(CCN(CC(=O)N[C@@H](CCSC)C(=O)O)C(=O)[C@@H](NC(=O)[C@@H](N)CS)C(C)C)cc1OC [Semipeptoid 3] (H-CV[N(3,4-(MeO)2phenethyl)Gly]M-OH)", "target": "Farnesyl protein transferase (FT) (Bos taurus, UniProt P29702+P49355)", "recorded-value": 6.92}

1: CSCC[C@H](NC(=O)CN(C(=O)[C@@H](NC(=O)[C@@H](N)CS)C(C)C)C1CCCCC1)C(=O)O [Semipeptoid 4] (H-CV[Gly(N-cHex)]M-OH)
2: CSCC[C@H](NC(=O)CN(Cc1ccccc1)C(=O)CN(C(=O)[C@@H](N)CS)C(C)C)C(=O)O [Semipeptoid 5] (H-C[N(iPr)Gly][Nphe]M-OH)
Recorded pIC50 values differ for 1 and 2 ; which one is higher? Record your answer as the label of the chosen record. 1
(1: 7.15, 2: 4.89)
